assay summary: Solubility of sorafenib in different organic solvents
Type: physicochemical
measurement setup: organic solvent, 37 °C, organic solvent or mixture, thermodynamic from solid, methanol-dichloromethane 1:2, 30 min, 37° C.
quantity kind: solubility at 30 min (mg/mL)

[[record]]
compound = "CNC(=O)c1cc(Oc2ccc(NC(=O)Nc3ccc(Cl)c(C(F)(F)F)c3)cc2)ccn1 [sorafenib]"
value = 20.9


---

assay summary: Solubility of sorafenib in different organic solvents
Type: physicochemical
measurement setup: organic solvent, 37 °C, organic solvent or mixture, thermodynamic from solid, methanol-dichloromethane 1:2, 24 h, 37° C.
quantity kind: solubility at 24 h (mg/mL)

[[record]]
molecule = "CNC(=O)c1cc(Oc2ccc(NC(=O)Nc3ccc(Cl)c(C(F)(F)F)c3)cc2)ccn1 [sorafenib]"
quantity_kind = "solubility at 24 h"
value = 36.2


---

assay summary: Screening of crystallization inhibitors: sorafenib content in polymer carrier/cholate medium over time
Assay type: physicochemical
measurement setup: pH 6.8 phosphate + 0.1% SDS with the inhibitor, 37° C., 1 h
quantity kind: Sorafenib content detection (µg/mL)

[[record]]
compound = "C[C@H](CCC(=O)NCC(=O)[O-])[C@H]1CC[C@H]2[C@@H]3[C@H](O)C[C@@H]4C[C@H](O)CC[C@]4(C)[C@H]3C[C@H](O)[C@]12C.[Na+] [0.3% SGC, sodium glycocholate]"
quantity_kind = "Sorafenib content detection"
value = 5.88

[[record]]
compound = "C[C@H](CCC(=O)NCC(=O)[O-])[C@H]1CC[C@H]2[C@@H]3[C@H](O)C[C@@H]4C[C@H](O)CC[C@]4(C)[C@H]3CC[C@]12C.[Na+] [0.3% SGCDC, sodium glycochenodeoxycholate]"
quantity_kind = "Sorafenib content detection"
value = 47.08

[[record]]
compound = "C[C@H](CCC(=O)NCC(=O)[O-])[C@H]1CC[C@H]2[C@@H]3CC[C@@H]4C[C@H](O)CC[C@]4(C)[C@H]3C[C@H](O)[C@]12C.[Na+] [0.3% SGDC, sodium glycodeoxycholate]"
quantity_kind = "Sorafenib content detection"
value = 6.28

[[record]]
compound = "C[C@H](CCC(=O)NCCS(=O)(=O)[O-])[C@H]1CC[C@H]2[C@@H]3[C@@H](O)C[C@@H]4C[C@H](O)CC[C@]4(C)[C@H]3CC[C@]12C.[Na+]"
quantity_kind = "Sorafenib content detection"
value = 6.22

[[record]]
compound = "C[C@H](CCC(=O)NCCS(=O)(=O)[O-])[C@H]1CC[C@H]2[C@@H]3CC[C@@H]4C[C@H](O)CC[C@]4(C)[C@H]3C[C@H](O)[C@]12C.[Na+] [0.3% STDC, sodium taurodeoxycholate]"
quantity_kind = "Sorafenib content detection"
value = 25.90


---

assay summary: Screening of crystallization inhibitors: sorafenib content in polymer carrier/cholate medium over time
Assay type: physicochemical
measurement setup: pH 6.8 phosphate + 0.1% SDS with the inhibitor, 37° C., 2 h
quantity kind: Sorafenib content detection (µg/mL)

[[record]]
compound = "C[C@H](CCC(=O)NCCS(=O)(=O)[O-])[C@H]1CC[C@H]2[C@@H]3[C@@H](O)C[C@@H]4C[C@H](O)CC[C@]4(C)[C@H]3CC[C@]12C.[Na+]"
quantity_kind = "Sorafenib content detection"
value = 4.69

[[record]]
compound = "C[C@H](CCC(=O)NCC(=O)[O-])[C@H]1CC[C@H]2[C@@H]3[C@H](O)C[C@@H]4C[C@H](O)CC[C@]4(C)[C@H]3CC[C@]12C.[Na+] [0.3% SGCDC, sodium glycochenodeoxycholate]"
quantity_kind = "Sorafenib content detection"
value = 10.41

[[record]]
compound = "C[C@H](CCC(=O)NCC(=O)[O-])[C@H]1CC[C@H]2[C@@H]3CC[C@@H]4C[C@H](O)CC[C@]4(C)[C@H]3C[C@H](O)[C@]12C.[Na+] [0.3% SGDC, sodium glycodeoxycholate]"
quantity_kind = "Sorafenib content detection"
value = 4.11

[[record]]
compound = "C[C@H](CCC(=O)NCCS(=O)(=O)[O-])[C@H]1CC[C@H]2[C@@H]3CC[C@@H]4C[C@H](O)CC[C@]4(C)[C@H]3C[C@H](O)[C@]12C.[Na+] [0.3% STDC, sodium taurodeoxycholate]"
quantity_kind = "Sorafenib content detection"
value = 11.19

[[record]]
compound = "C[C@H](CCC(=O)NCC(=O)[O-])[C@H]1CC[C@H]2[C@@H]3[C@H](O)C[C@@H]4C[C@H](O)CC[C@]4(C)[C@H]3C[C@H](O)[C@]12C.[Na+] [0.3% SGC, sodium glycocholate]"
quantity_kind = "Sorafenib content detection"
value = 4.32

